test: Single-dose PK study in rats; assay type: in vivo; conditions: rat; male SD rats, oral gavage 3 mg/kg, plasma; read-out: Area under the curve AUC0-24h
result type: AUC(0-t) (ng·h/mL)

compound="CCO[C@H]1CCN(Cc2c(OC)cc(C)c3[nH]ccc23)[C@H](c2ccc(C(=O)O)cc2)C1 [Comparative Example 1, reference compound]" result_type=AUC(0-t) measured=3660

---

assay: Single-dose PK study in rats; assay type: in vivo; conditions: rat, in vivo; male SD rats, oral gavage 3 mg/kg, plasma; read-out: Half-life T1/2 (converted)
result type: half-life (h)

molecule="COc1cc([C@@H]2C[C@@H](C=C(F)F)CCN2Cc2c(OC)cc(C)c3[nH]ccc23)ccc1C(=O)O [Compound 36-P1]" measured=8.29
molecule="COc1cc(C)c2[nH]ccc2c1CN1CC[C@H](C=C(F)F)C[C@H]1c1ccc(C(=O)O)cc1C (single isomer, unassigned) [Compound 33-P1]" measured=11.2
molecule="COc1cc(C)c2[nH]ccc2c1CN1CCC2(CC(=C(F)F)C2)C[C@H]1c1ccc(C(=O)O)cc1 (stereo partly drawn)" measured=11.3
